tested on: U2OS; experiment: Multiplex assay against U2OS; format: toxicity, cell-based; conditions: human, 48 h, 1 µM, compound concentration 1 uM, replicate 2
Population Membrane Permeable-Phenotype (%) values by entry
reported-metric: Population Membrane Permeable-Phenotype (%)

INSERT INTO assay_data (smiles_representation, observed_measurement) VALUES
  ('CN(c1cc(C(F)(F)F)nc(OCCC(=O)O)n1)c1cccc2c1CCC2', 5),
  ('Cl.NC[C@@H]1O[C@H](C23CC4CC(CC(C4)C2)C3)Cc2c1ccc(O)c2O', 3),
  ('CC(C)c1cc(Nc2nc(N3CCC[C@H](N)C3)ncc2C(N)=O)cc(C(C)C)n1', 46),
  ('CCCc1cc(C)[nH]c(=O)c1CNC(=O)c1cc(-c2ccc(N3CCN(C(C)C)CC3)nc2)cc2c1cnn2C(C)C', 27);

Reference source: ChEMBL document CHEMBL4689842
